- PROTOCOL TEXT: Plasma pharmacokinetics of TAK‐020
- Type: in vivo, human (healthy subjects)
- ASSAY CONDITIONS: human, plasma, oral, 60 mg, mean t1/2z, MRD, 60‐mg dose, day 9 after q.d. dosing
EXPERIMENTAL ENDPOINT: half-life (h)
Only the number, expressed in h, is required.

Task: I would be grateful if you could share the reported half-life for C=CC(=O)N1CC[C@H](Oc2nc(-c3n[nH]c(=O)[nH]3)cc3ccccc23)C1 .
Output: 5.46

###

- PROTOCOL TEXT: Plasma pharmacokinetics of TAK‐020
- Format: in vivo, human (healthy subjects)
- ASSAY CONDITIONS: human, plasma, oral, median Tmax, MRD 3.75 to 60 mg, after a single dose on day 1
EXPERIMENTAL ENDPOINT: Tmax

Task: I would be grateful if you could share the reported Tmax for C=CC(=O)N1CC[C@H](Oc2nc(-c3n[nH]c(=O)[nH]3)cc3ccccc23)C1 .
Output: 30 to 45 min

###

- PROTOCOL TEXT: Plasma pharmacokinetics of TAK‐020
- Type: in vivo, human (healthy subjects)
- ASSAY CONDITIONS: human, plasma, oral, mean half‐life in plasma, q.d. dosing
EXPERIMENTAL ENDPOINT: half-life

Task: I would be grateful if you could share the reported half-life for C=CC(=O)N1CC[C@H](Oc2nc(-c3n[nH]c(=O)[nH]3)cc3ccccc23)C1 .
Output: 2 to 6 h

###

- PROTOCOL TEXT: Plasma pharmacokinetics of TAK‐020
- Type: in vivo, human (healthy subjects)
- ASSAY CONDITIONS: human, plasma, oral, 60 mg, mean t1/2z, MRD, 60‐mg dose, day 1
EXPERIMENTAL ENDPOINT: half-life (h)
Only the number, expressed in h, is required.

Task: I would be grateful if you could share the reported half-life for C=CC(=O)N1CC[C@H](Oc2nc(-c3n[nH]c(=O)[nH]3)cc3ccccc23)C1 [TAK‐020] .
Output: 6.3
